These measurements were taken from the supplement of paper PMC6757056.

B1: library; a variant is named by its letters at N, in order (parent)
chain: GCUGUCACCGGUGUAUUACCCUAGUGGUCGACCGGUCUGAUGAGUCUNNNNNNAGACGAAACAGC

Variants of: B1
Assay: normalized RNA/DNA level with ligand (relative to sTRSVctl = 100) (log10 (% of sTRSVctl)); ligand: hypoxanthine (xanthine aptamer); higher = less ribozyme self-cleavage, higher mRNA level
Settings: ligand concentration (+) RNA-Seq: 5 mM, HEK293T, reporter: mCherry (pCS4076), ligand present: yes
Reported values of normalized RNA/DNA level with ligand (log10) for individual entries
Lab note: jot the number down without any unit.

[
  {
    "variant_label": "UCUCUA",
    "measured_number": 1.94
  },
  {
    "variant_label": "UUGGUA",
    "measured_number": 1.94
  }
]

Form field: reported normalized RNA/DNA level with ligand (log10) of "UGCAGG"
1.87

Can you check "CCUUAG" next?
1.98

Can you check "UCUUGG" next?
1.92

Can you check "AUGGUA" next?
1.86
